# test-target: c-MET (Homo sapiens, UniProt P08581)
# Construct: Purified GST fusion protein containing the Met kinase domain, Sugen, Inc
# Sequence (P08581 1078-1345 limits assumed): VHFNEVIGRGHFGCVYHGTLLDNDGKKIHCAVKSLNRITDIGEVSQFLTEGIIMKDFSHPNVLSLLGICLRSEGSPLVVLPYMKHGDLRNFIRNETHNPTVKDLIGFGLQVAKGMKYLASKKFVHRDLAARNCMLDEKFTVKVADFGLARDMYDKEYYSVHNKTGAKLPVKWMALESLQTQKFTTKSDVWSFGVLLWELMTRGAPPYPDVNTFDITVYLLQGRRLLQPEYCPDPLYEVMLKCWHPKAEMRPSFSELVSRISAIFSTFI
# protocol-summary: MET Transphosphorylation Assay (ELISA, poly(Glu,Tyr) 4:1 substrate)
# Type: biochemical
# assay-context: purified GST fusion protein containing the Met kinase domain; poly(glu, tyr) 4:1 substrate; read-out: c-MET IC50
pIC50: −log10 of the molar value.
measure-name: pIC50

Example molecules with recorded pIC50:
N[C@H]1CCN(C(=O)c2ccc3[nH]c4nc5nnc(Cc6ccc(F)cc6)n5nc4c3c2Cl)C1 [Example 34]; 7.38
Oc1ccc(Cc2nnc3nc4[nH]c5c(Cl)cccc5c4nn23)cc1 [Example 22]; 7.46
Cc1cc(C)c2[nH]c3nc4nnc(Cc5ccc(O)cc5)n4nc3c2c1 [Example 25]; 7.26
Oc1ccc(Cc2nnc3nc4[nH]c5ccccc5c4nn23)cc1 [Example 17]; 7.74
COc1cc(Cl)c2[nH]c3nc4nnc(Cc5ccc(O)cc5)n4nc3c2c1Cl [Example 20]; 7.34

P = Oc1ccc(Cc2nnc3nc4[nH]c5c(Cl)ccc(Cl)c5c4nn23)cc1 [Example 18]
Q = Cc1cc(OCCN2CCOCC2)c(C)c2c1[nH]c1nc3nnc(Cc4ccc(F)cc4)n3nc12 [Example 36]
R = Cc1ccc(C)c2c1[nH]c1nc3nnc(Cc4ccc(O)cc4)n3nc12 [Example 24, dihydrate]
stdin: Order the entries by their reported pIC50, beginning at the minimum. Please respond by ranking the labels in the order requested.
stdout: Q, P, R
